Measured on: EPHB1 (UniProt P54762)
Sequence (P54762 whole entry, looked up): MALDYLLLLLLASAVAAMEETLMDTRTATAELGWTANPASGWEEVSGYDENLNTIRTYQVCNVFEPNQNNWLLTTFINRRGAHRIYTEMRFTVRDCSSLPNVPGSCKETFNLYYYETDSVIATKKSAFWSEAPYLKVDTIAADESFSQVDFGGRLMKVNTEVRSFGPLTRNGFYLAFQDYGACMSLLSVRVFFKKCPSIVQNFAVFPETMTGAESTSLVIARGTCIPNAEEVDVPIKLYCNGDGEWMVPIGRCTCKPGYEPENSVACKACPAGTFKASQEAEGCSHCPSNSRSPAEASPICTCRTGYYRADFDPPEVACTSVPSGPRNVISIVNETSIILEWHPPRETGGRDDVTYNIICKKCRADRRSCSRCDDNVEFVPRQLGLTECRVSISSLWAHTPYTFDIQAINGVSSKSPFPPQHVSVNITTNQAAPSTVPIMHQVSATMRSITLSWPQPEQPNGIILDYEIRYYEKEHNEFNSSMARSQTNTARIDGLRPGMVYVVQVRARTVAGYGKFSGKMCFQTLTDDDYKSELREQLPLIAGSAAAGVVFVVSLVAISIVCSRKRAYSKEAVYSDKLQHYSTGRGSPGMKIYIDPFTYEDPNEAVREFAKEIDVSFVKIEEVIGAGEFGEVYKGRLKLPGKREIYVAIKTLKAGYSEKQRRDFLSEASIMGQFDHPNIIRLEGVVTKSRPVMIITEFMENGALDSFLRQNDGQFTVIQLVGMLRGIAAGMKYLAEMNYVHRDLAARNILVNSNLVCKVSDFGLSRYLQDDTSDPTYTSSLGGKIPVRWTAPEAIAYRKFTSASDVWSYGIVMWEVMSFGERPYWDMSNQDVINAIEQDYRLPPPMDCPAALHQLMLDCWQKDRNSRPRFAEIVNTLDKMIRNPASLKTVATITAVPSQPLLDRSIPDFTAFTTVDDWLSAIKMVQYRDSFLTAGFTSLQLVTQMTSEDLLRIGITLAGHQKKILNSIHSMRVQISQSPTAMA
Assay explanation: phosphorylation enrichment, bacterial display (enrichment ratio); higher = better substrate or ligand; peptides without Tyr show the background;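 further: 11-residue human phosphosite peptides and single-mutation variants displayed on the E. coli surface, counted by deep sequencing, each peptide's frequency after selection divided by its frequency in the unselected input library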;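 further: frequency after pTyr selection over input frequency; kinase dosed for 20-30% of maximal phosphorylation in three min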
Endpoint label: phosphorylation enrichment
// return a plain number; no unit text

{"columns": ["Sequence entry", "Measured on", "phosphorylation enrichment"],
 "data": [
  ["NNRVFYGNSDC [RS1_Y177_R182C]", "EPHB1 (UniProt P54762)", 0.489],
  ["ESMLRYEVFGG [STOX1_Y607_YF]", "EPHB1 (UniProt P54762)", 0.631],
  ["LQLLGDRPVFS [CHST6_Y358_Y358D_YF]", "EPHB1 (UniProt P54762)", 0.521],
  ["FRPPFYHRDCM [HGD_Y334_N337D_YF]", "EPHB1 (UniProt P54762)", 0.611],
  ["DGLALYTGSAL [COL6A3_Y524_S521L]", "EPHB1 (UniProt P54762)", 0.968],
  ["MPAVTYTPAMR [MEGF10_Y895]", "EPHB1 (UniProt P54762)", 0.253]
]}

// recorded phosphorylation enrichment for LLREWYLQDPF [SIX3_Y225_YF] : 0.557

Quick note, phosphorylation enrichment for VTPVMYTFDEF [COL10A1_Y623_G618V_YF] landed at 0.665

Quick note, phosphorylation enrichment for SSEFHYVGGFF [CTSC_Y347_YF] landed at 0.646

get_value(item= MCDKEYFSVHN [MET_Y1234_Y1230C_YF] , readout=phosphorylation enrichment) returns 0.692

// recorded phosphorylation enrichment for ADCRFYTFPQM [GAMT_Y223_A224T_YF] : 1.07

Lab note: STQAHYRLSAF [ADAMTS9_Y100_S96T] gave phosphorylation enrichment of 0.395

The recorded phosphorylation enrichment for PRDSGYSYETI [MAP1B_Y1921_S1917R] is 0.448

* * *

Tested on: AncSZ
Assay explanation: phosphorylation enrichment, bacterial display (enrichment ratio); higher = better substrate or ligand; peptides without Tyr show the background
# cutoff 0.8 applies to phosphorylation enrichment; >= gives Met, < gives Not met

Use these answered entries as a reference point.
{"columns": ["Sequence entry", "Assigned class"],
 "data": [
  ["SLEKSYKLPDG [ACTA1_Y242_E243K]", "Not met"],
  ["KTDVRYRSLGG [DYSF_Y1858_H1857R]", "Not met"],
  ["AHLLQYNHRVK [LGALS3_Y221]", "Not met"],
  ["HEEDNYIEMIP [NWD2_Y566_L569M]", "Met"],
  ["WEQELYSQLVY [WAS_Y102]", "Met"]
]}

Shift focus to the following entry.
Query: Please indicate if the recorded phosphorylation enrichment for RNFVRYVQGLK [VWF_Y1400] meets or exceeds 0.8.
Result: Not met

* * *

The sequences listed here are annotated with their phosphorylation enrichment.
Measured on: Hck (UniProt P08631)
Sequence (P08631 whole entry, looked up): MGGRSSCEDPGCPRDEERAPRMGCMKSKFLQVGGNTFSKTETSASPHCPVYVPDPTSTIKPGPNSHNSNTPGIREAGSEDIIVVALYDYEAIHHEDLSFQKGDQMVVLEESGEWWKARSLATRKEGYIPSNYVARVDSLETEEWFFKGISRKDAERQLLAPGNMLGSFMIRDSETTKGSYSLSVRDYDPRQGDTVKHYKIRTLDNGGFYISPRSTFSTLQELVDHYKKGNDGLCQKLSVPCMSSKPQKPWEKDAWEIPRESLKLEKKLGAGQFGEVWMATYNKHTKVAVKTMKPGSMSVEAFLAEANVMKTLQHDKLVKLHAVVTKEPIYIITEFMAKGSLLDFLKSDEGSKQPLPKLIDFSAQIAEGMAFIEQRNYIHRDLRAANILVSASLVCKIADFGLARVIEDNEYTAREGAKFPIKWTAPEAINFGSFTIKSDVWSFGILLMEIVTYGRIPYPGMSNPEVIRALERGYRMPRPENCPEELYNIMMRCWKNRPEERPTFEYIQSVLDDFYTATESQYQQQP
Assay explanation: phosphorylation enrichment, bacterial display (enrichment ratio); higher = better substrate or ligand; peptides without Tyr show the background
Just the number, please, no unit after it.

{"columns": ["Sequence entry", "Measured on", "phosphorylation enrichment"],
 "data": [
  ["NGSFRYVIISQ [LRP1B_Y1988]", "Hck (UniProt P08631)", 0.657],
  ["RPQDGYRIVQH [PTPRT_Y1329]", "Hck (UniProt P08631)", 0.586],
  ["MTRDIYRASYY [ALK_Y1278_A1274T]", "Hck (UniProt P08631)", 1.17],
  ["LYVDVYGPSVP [NUBPL_Y109_D105Y]", "Hck (UniProt P08631)", 2.85],
  ["DPEATYTTSGG [EPHA2_Y772]", "Hck (UniProt P08631)", 0.591]
]}

Field phosphorylation enrichment (entry LPPGEYVVVPS [CAPN1_Y494] ) reads 0.67

Value of measured phosphorylation enrichment for the entry LHSDHYSPSGR [TMPRSS12_Y23_Y19H] : 0.851

What the record says about KANEYYPVVII [ADAMTS18_Y765_L769I] : phosphorylation enrichment is 0.738

# phosphorylation enrichment (sequence: RNVLVYDKLNV [ROR2_Y624] ) is 13.9

get_value(item= ALAHKYQGGGG [HBB_Y146_H147Q] , readout=phosphorylation enrichment) returns 0.375

Values compiled from the supplement of paper PMC10065799.
